Values from paper PMC3546861

Target: HLA-A*0201 molecule of T2 cells (Homo sapiens, UniProt P04439, D140Y/D185E/D98H/E176V/E277Q/G131W/G231S/I119V/I121R/I166T/I218V/L300P/L318F/N151K/N90K/P208A/P217A/Q86G/Q94H/R138H/R169H/T345S)
Assay: MHC-peptide complex stabilization assay on T2 cells
Assay type: binding
Set-up: key: FI = (MFI sample − MFI background) / MFI background
Conditions: peptide 100 μg (100 μg/ml), serum-free RPMI 1640, 1 h 37°C, 12 h 26°C, 3 h 37°C, FITC anti-HLA-A*0201, flow cytometry, FI = (MFI sample - MFI background)/MFI background
Decide using FI (fluorescence index) alone. Strictly below 2: 1. Equal to or above 2: 0.

Past entries and their recorded results:
TILTIIGLI [D4V-NS4a140-148, D4V variant peptide of D1V-NS4a140-148, nonapeptide …]
1
AMVLSIVSL [D1V-NS2a169-177]
1
LLMRTSWAL [D3V-NS4b182-190, D3V variant peptide of D1V-NS4b183-191, nonapeptide …]
0

Dear colleague, could you confirm whether FI (fluorescence index) of QLWAALLSL [D1V-NS2a144-152] falls below 2? Thanks.
1
